Recorded values, source PubChem BioAssay (NCI).

Assay: NCI Yeast Anticancer Drug Screen. Data for the mlh1 rad18 strain (AID 175)
Conditions: S. cerevisiae mlh1 rad18 strain growth inhibition; at 50.0 µM; active compounds read high
About 79,000 compounds went through this panel and 15% of them were active in at least one assay; those are over-represented in the sample as a whole.
Known growth inhibition of a selection of molecules
# unit: % | format: bare number

Examples with their reported growth inhibition follow.
# MOLECULE, UNIT_SPEC, growth inhibition
records = [
    ("C=CC1C(C[C@@H]2c3cc(O)c(O)cc3CCN2C(C)=O)C(C(=O)OC)=CO[C@H]1OC1OC(CO)C(O)C(O)C1O (stereo partly drawn)", "%", 19.4),
    ("COC(=O)C1C(C(=O)OC)C2(C)C(=O)C1(C)C(c1ccccc1)=C2c1ccccc1 (stereo not drawn)", "%", 5.15),
]

--- query ---
Task: Entry `CC(C)(C)NC1=C([N+](=O)[O-])CCCC1` has what growth inhibition?
Output: 4.5

---

Assay: NCI Yeast Anticancer Drug Screen. Data for the sgs1 mgt1 strain (AID 161);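 note: 0% = growth of cultures given vehicle only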
Conditions: S. cerevisiae sgs1 mgt1 strain, at 50.0 µM
This is part of a sample that, as a whole, favours compounds with a hit. Of some 79,000 tested, about 15% had one in any assay. The source made the active and inactive calls. Cut-off read from the data, not from the text of the source: active = growth inhibition above about 70%; inactive = the rest.
Outcome field: choose from yes (1) for active, no (0) for inactive

Solved cases (6 shown):
# COMPOUND, LABEL
records = [
    ("O=C1OCC(Cc2ccc3c(c2)OCO3)[C@H]1Cc1ccc(O)cc1 (some centres not stated)", "no (0)"),
    ("CC(C)CCOc1ccc(C(N)=S)c2ccccc12", "yes (1)"),
    ("O=CNc1ccccc1O", "no (0)"),
    ("CCCC1(C(OC)OC)NC(=O)N(Cc2ccccc2)C1=O (configuration not stated)", "no (0)"),
    ("OCc1c(CO)c(Br)c2ccccc2c1Br", "no (0)"),
    ("c1ccc2cc3c(cc2c1)oc1cc2ccccc2cc13", "no (0)"),
]

Task: What call does the record list for CCC(C)CC(O)CC(C)C (configuration not stated) ?
Output: no (0)

Task: Entry to check: `O=C1CCSCCC(=O)Nc2ccccc2N1`
Output: no (0)

---

Experiment: NCI Yeast Anticancer Drug Screen. Data for the cln2 rad14 strain (AID 165);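 note: 0% = growth equal to vehicle treated cultures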
Conditions: S. cerevisiae cln2 rad14 strain, at 50.0 µM, active compounds read high
About 79,000 compounds went through this panel and 15% of them were active in at least one assay; those are over-represented in the sample as a whole.
QUANTITY: growth inhibition (%)
# unit: % | format: bare number

Examples with their reported growth inhibition follow.
# MOLECULE, UNIT_SPEC, growth inhibition
rows = [
    ("O=C(c1ccccc1)C(c1ccccc1)C1(O)C(=O)Nc2ccc(Br)cc21 (stereo not given)", "%", 16.1),
    ("CCCCCN(C(=O)CCC)c1ccccc1", "%", 17.7),
    ("CCC(C(O)c1ccc(Cl)cc1)C(O)(C(F)(F)F)C(F)(F)F (stereo not given)", "%", 99.5),
    ("CNC(=S)N(C)/N=C/c1ccccc1", "%", -28.9),
]

--- query ---
Task: Entry `c1ccc(-c2cc(-c3ccccc3)nc(-c3ccncc3)c2)cc1` has what growth inhibition?
Output: 13.8

---

Known growth inhibition of a selection of compounds
Assay: NCI Yeast Anticancer Drug Screen. Data for the cln2 rad14 strain (AID 165);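 note: 0% = growth equal to vehicle treated cultures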
Conditions: S. cerevisiae cln2 rad14 strain, at 50.0 µM, active compounds read high
Compounds without any hit were thinned out: in the full panel of roughly 79,000, 15% have a hit.
# unit: % | format: bare number

Examples with their reported growth inhibition follow.
# COMPOUND, growth inhibition (%)
records = [
    ("O.O.O=c1[nH]cc(CO)c(=O)[nH]1.[NH2-].[NH2-].[Pt+2]", 16.6),
    ("COc1cc(/C(C#N)=C/c2ccccn2)c([N+](=O)[O-])cc1OC", -36.6),
    ("Cc1cccc(Cl)c1NC(=O)c1ccc(C(=O)Nc2c(C)cccc2Cl)cc1", 4.05),
]

Task: Entry `C/C(CC(=O)Nc1ccc(C)cc1)=N\NC(N)=S` has what growth inhibition?
Output: 8.3

Task: Entry to check: OC1C(OCc2ccccc2)OC(COCc2ccccc2)C(OC2OC(COCc3ccccc3)C(OCc3ccccc3)C(OCc3ccccc3)C2OCc2ccccc2)C1OCc1ccccc1 (stereo unspecified)
Output: -8.65

Task: Entry to check: CCOC(=O)C(C(C)=O)C(CC(=O)OC)NC(=O)OCc1ccccc1 (stereo unspecified)
Output: -57.2

Task: Entry to check: COC1OC2COc3ccccc3OC2C2C1N2C(N)=S (stereo unspecified)
Output: 1.65

Task: Entry to check: `C/C(N=NC(=S)N1CCCC1)=C1\C=CC=CN1O`
Output: -5.6

Task: Entry to check: `O=C(O)c1ccc(OC2CCCCC2)cc1`
Output: 18.6

Task: Entry to check: COc1ccc(C2OC3=Nc4cc(C)c(C)cc4NC3C2=O)cc1OC (stereo unspecified)
Output: -1.9
